# Tested on: Plasmodium yoelii
# Experiment Notes: Antimalarial activity against Plasmodium yoelii N-67 infected Swiss mouse assessed as parasitemia at 200 mg/kg, ip qd administered 4 days measured on day 7 (reference value: 19.5 +/- 0.76 %)
# Format: functional
# Study Conditions: route intraperitoneal

Structure String	Target Under Test	Uom	Activity
Cc1nc2ccccc2c(=O)n1[C@@H](CCC(=O)O)C(=O)O	Plasmodium yoelii	%	18.45
Cc1nc2ccccc2c(=O)n1CC(=O)O	Plasmodium yoelii	%	17.2
Cc1nc2ccccc2c(=O)n1-c1ccc([N+](=O)[O-])cc1	Plasmodium yoelii	%	25.5
Cc1nc2ccccc2c(=O)n1[C@@H](CCCCN)C(=O)O	Plasmodium yoelii	%	17.5
Cc1nc2ccccc2c(=O)n1-c1ccc(O)cc1	Plasmodium yoelii	%	16.8
Cc1nc2ccccc2c(=O)n1[C@@H](CS)C(=O)O	Plasmodium yoelii	%	25
